# method.description: Half life in rat at 5 mg/kg, iv
# Assay type: ADME, organism-based
# experimental.context: in vivo
observed.property: half-life

Form field half-life, entry `C[C@@](C[C@H]1CN(c2ccc(C#CC3CC3)cc2)C(=O)O1)(C(=O)NO)S(C)(=O)=O` : 54 min

====

# System: Escherichia coli
# method.description: Antimicrobial activity against Escherichia coli ATCC 25922 after 20 hrs by CLSI protocol-based microdilution assay
# Format: functional
# experimental.context: ATCC 25922, 20 h
observed.property: MIC

The following compounds have reported results that may help.
C[C@@](C[C@H]1CN(c2ccc(Br)cc2)C(=O)O1)(C(=O)NO)S(C)(=O)=O = > 64 µg/mL
C/C=C/c1ccc(C2=NO[C@@H](C[C@](C)(C(=O)NO)S(C)(=O)=O)C2)cc1 = 2 µg/mL
C[C@@H](O)Cc1ccc(-c2ccc(N3C[C@H](C[C@](C)(C(=O)NO)S(C)(=O)=O)OC3=O)cc2)cc1 = 0.25 µg/mL
CCCc1ccc(N2C[C@H](C[C@](C)(C(=O)NO)S(C)(=O)=O)OC2=O)cc1 = 4 µg/mL
CCCc1ccc(C2=NO[C@@H](C[C@](C)(C(=O)NO)S(C)(=O)=O)C2)cc1 = 4 µg/mL

Note: attention shifts to another entry.
Form field MIC, entry `C[C@@](C[C@H]1CC(c2ccc(C#CC3CC3)cc2)=NO1)(C(=O)NO)S(C)(=O)=O` : 0.125 µg/mL
